B1: CPEB3 Ribozyme (parent)
chain: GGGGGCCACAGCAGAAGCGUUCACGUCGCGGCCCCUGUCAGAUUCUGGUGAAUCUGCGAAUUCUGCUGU

variants of: B1; experiment: self-cleavage, relative activity (ratio to wild type); higher = more cleavage; co-transcriptional
Would you mind telling me the reported self-cleavage of each entry?
Lab note: jot the number down without any unit.

QUERY: Reported self-cleavage, variant G31C C57A : ____
RESULT: 0.163

QUERY: Which self-cleavage is reported for this variant? C12A U49C
RESULT: 0.73

QUERY: GET /values?readout=self-cleavage&item= C9G G30U
RESULT: 0.759

QUERY: Record request: self-cleavage value, item A59G U61G
RESULT: 0.941

QUERY: Bench note: what self-cleavage did C34A A42U show?
RESULT: 0.491

QUERY: Suppose we examine the variant G3C G50U ; what self-cleavage value has been reported?
RESULT: 0.133

QUERY: Item under review: G4C C22G . Reported self-cleavage?
RESULT: 0.082

QUERY: Give its self-cleavage value. Item: C33G U36C
RESULT: 0.531

QUERY: Tell me the measured self-cleavage of G30C C54A , please.
RESULT: 0.346

QUERY: What value of self-cleavage has been reported for the following variant? C35A C63G
RESULT: 0.22

QUERY: Record request: self-cleavage value, item U46C G65U
RESULT: 0.629

Sourced from the RNAGym collection of RNA variant scans (doi:10.7554/elife.80360)
